Recorded measurements of pKi, one per entry
EXPERIMENTAL_SYSTEM: GABA-A receptor; alpha-2/beta-3/gamma-2 (Homo sapiens, UniProt P18507+P28472+P47869)
Sequence (P18507 whole entry): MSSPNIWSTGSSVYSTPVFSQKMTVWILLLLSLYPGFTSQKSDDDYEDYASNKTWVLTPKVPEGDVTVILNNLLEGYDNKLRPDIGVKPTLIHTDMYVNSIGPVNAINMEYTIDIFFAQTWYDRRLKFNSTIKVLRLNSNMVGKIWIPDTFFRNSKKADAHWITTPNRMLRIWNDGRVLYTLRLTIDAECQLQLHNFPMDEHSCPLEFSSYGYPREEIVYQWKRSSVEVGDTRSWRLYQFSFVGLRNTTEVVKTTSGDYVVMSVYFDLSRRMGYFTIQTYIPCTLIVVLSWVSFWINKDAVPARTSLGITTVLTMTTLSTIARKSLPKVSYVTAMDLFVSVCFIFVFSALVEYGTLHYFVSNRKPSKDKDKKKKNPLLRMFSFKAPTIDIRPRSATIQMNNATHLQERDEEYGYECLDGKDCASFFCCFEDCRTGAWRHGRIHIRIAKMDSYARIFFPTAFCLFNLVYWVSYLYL
Sequence (P28472 whole entry): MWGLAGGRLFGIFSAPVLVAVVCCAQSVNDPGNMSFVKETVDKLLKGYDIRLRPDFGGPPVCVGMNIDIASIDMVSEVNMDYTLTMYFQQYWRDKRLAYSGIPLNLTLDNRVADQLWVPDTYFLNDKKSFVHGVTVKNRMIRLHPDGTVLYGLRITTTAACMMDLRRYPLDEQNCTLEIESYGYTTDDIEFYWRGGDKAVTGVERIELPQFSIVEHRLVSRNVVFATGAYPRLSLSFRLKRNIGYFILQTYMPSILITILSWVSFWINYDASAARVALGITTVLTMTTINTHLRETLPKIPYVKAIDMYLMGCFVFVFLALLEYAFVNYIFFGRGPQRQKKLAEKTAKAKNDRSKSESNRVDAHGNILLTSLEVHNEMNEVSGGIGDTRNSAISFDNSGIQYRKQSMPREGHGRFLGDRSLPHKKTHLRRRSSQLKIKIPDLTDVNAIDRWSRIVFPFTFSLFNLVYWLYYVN
Sequence (P47869 whole entry): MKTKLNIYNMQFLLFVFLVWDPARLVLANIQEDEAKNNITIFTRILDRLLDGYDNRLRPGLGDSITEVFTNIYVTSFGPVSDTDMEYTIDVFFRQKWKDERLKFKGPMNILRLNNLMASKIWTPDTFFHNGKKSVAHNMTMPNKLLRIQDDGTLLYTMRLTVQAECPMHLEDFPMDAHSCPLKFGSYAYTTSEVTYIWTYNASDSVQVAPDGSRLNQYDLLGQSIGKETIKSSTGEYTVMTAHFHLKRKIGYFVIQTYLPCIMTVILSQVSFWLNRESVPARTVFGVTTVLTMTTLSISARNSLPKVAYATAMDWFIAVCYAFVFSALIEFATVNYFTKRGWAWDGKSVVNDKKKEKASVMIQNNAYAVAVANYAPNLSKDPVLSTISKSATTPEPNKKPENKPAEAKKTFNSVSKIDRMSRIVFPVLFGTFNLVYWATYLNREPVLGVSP
PROCEDURE_TEXT: Inhibition of [3H]Ro-151788 binding to recombinant human gamma-aminobutyric acid A receptor alpha-2-beta-3-gamma-2 subtype expressed in L (tk-) cells
Conceptually, pKi converts a concentration in mol/L into minus its log10.

Consider the following illustrative entries.
Cn1cnc(COc2nn3c(-c4ccccc4)nnc3c3c2C2CCC3CC2)n1 | 7.80
Cc1ccc(COc2nn3c(-c4ccccc4)nnc3c3c2C2CCC3CC2)nn1 | 7.66
O=C1CCC(COc2nn3c(-c4ccccc4)nnc3c3c2C2CCC3CC2)N1 (stereo not given) | 6.32
Fc1ccccc1-c1nnc2c3c(c(OCc4ccccn4)nn12)C1CCC3CC1 | 7.80
c1ccc(-c2nnc3c4c(c(OCc5nccc6ccccc56)nn23)C2CCC4CC2)cc1 | 8.12
c1ccc(COc2nn3c(C4CC4)nnc3c3c2C2CCC3CC2)nc1 | 7.62
Cc1cccc(-c2nnc3c4c(c(OCc5ccccn5)nn23)C2CCC4CC2)c1 | 6.68

Kindly consider the entry below.
molecule Oc1cccnc1COc1nn2c(-c3ccccc3)nnc2c2c1C1CCC2CC1 , pKi observed: 6.33
